Assay: yeast display, Sf9 membrane polyspecificity reagent, FACS + sequencing; frameworks hold sequencing errors
readoutKind: polyreactivity (PSR sort gate)

Examples with answers:
Fill in: polyreactivity (PSR sort gate) of QVQQQESGGVLVHAGGSLRLSCAASGTISPLPAMGWYRQAPGKEREFVAGIDTGAISNYADSVKGRFTISRDNAKNTVYLQMNSLKPEDTAVYYCAVFPAAYEYYVRYYTYWGQGTQVTVSS is ___ low polyreactivity

What value of measured polyreactivity (PSR sort gate) is listed for QVQLVESGGGLVQAGGSLRISCAASGFTFRSYVMGWYRQAAGKEWELVAAISSRGSSTSYADSVKGRFTISRDNAKNTVYLQMNSLKPEDTAVYDCAPRLFWRGRKFAYWGQGTQVTVSS ? high polyreactivity

Requested read-out: polyreactivity (PSR sort gate). Entry: QVQLVESGGGLVQAGGSLRLSCAASGSTFIGYDMGWYRQAPGQERELVAAISYSDGTYYADSVKGRFTISRDNAKNTVYLQMNSLKPEDTAVYYCATSYRDMGSHVGYWGQGTQLTVSS low polyreactivity

What value of measured polyreactivity (PSR sort gate) is listed for QVQLVESGGGLVQAGGSLRLSCAASGRIFSWYAMGWYRQAPGKERELVAAISWNGGSTYYADSVKGRFTISRDNAKNTVYLQMNSLKPEDTAVYYCAATYRHYGYDSWGQGTQVTVSS ? high polyreactivity

Here's the next entry for you.
Report polyreactivity (PSR sort gate) for QVQLVESGGGLVQAGGSLRLSCAASGFTFAYYAMGWYRQAPGKERELVADISSGGSTDYADSVKGRFTISRDNAKNTVYLQMNSLKPEDTAVYYCNAVVVRLWYDYDYWGQGTQVTVSS please. low polyreactivity

====

Experiment: yeast display, Sf9 membrane polyspecificity reagent, FACS + sequencing; frameworks hold sequencing errors
readoutKind: polyreactivity (PSR sort gate)

What value of measured polyreactivity (PSR sort gate) is listed for QVQLVESGGGLVQAGGSLRIICAATGSIFYWNAMGWYRQSPGKEREFVASIRKSGGSTNYADSVKGRFTISRDNAKNTVYLQMTSQKPEDTAVYYCAAYSYYRGTFYDYWGQGTQVTVSS ? low polyreactivity

Please report the recorded polyreactivity (PSR sort gate) for QVQLVETAGGLVQAGGSLRLSSAASGRIFPFNTMGWSRQAPGKERELVATITYRGDRTYYADSVKGRFTISRDNAKNTVYLQMNSLKPEDTGVYYCNARGTYYLGRYYWGQGTQETVSS . high polyreactivity

Could you share which polyreactivity (PSR sort gate) value was measured for QVQLVESGGGLVQAGGSLRLSCAASGRIFGQNVMGWYIQAPGKERELVAAITSAGRTYYADSVKGRFTISRDIAKNTVYLQMKSLKPEDTAVYYCAAYVRRGFDWGQGTQVTVSS ? high polyreactivity

Which polyreactivity (PSR sort gate) is reported for this sequence? QVQLVESGGGLVQAGGSLRLSCAASGNIFGTYAMGWSRQAPRKERELVATISNDDRTNYADSVKGRFTISRDNAKNTVYFQMNSLKPADTAVYYCAVEYPSIAYRKSSKTFDYWGQGTQVTVSS low polyreactivity

polyreactivity (PSR sort gate) for QVQLVESGGGLVQAGGSLRLSCAASGFTFVGNTMGWYRQAPGKERELVAAIRGRDGRTYYADSVKGRFTISRDNAKNTVYLQMNSLKPEDTAVFYCNAVGFVWYFDVYSYFTEIKYDYWGQGTQVTVSS ? low polyreactivity

For QVQLVESGGGLVQAGGSLRLSCAASGYTFHGYAMGWYRQAPGKERELVAVITQRGGSTSYADSVKGRFTISRDNAKNTVYLQMNSLKPEDTAVYYCNADGPSTPWVDYGYWGQGTQVTVSS , what is its reported polyreactivity (PSR sort gate)? low polyreactivity

Next:
What does the record list as polyreactivity (PSR sort gate) for QVQLVESGGGLVQAGGSLRLSCAASGFTFRYYVMGWYRQAPGKERELVAAITSGGSTNYADSVKGRFTISRDNAKNTVYLQMNSLKPEDTAVYYCYAAYRSYGRFDYWGQGTQVTVSS ? low polyreactivity

Consider the sequence shown here: QVQLVESGGGLVQAGGSLRLSCAASGSTFRRYAMGWYRQAPGKERELVAAITSGGRTNYADSVKGRFTISRDNAKNTVYLQMNSLKPEDTAVYYCAARYIRGSYGMGYWGQGTQVTVSS What is its recorded polyreactivity (PSR sort gate)? high polyreactivity

Please look up its polyreactivity (PSR sort gate): QVQLVESGGGLVQAGGSLRLSCAASGSTFPYNAMGWYRQAPGKERELVASISRRGGSTYYADSVKGRFTISRDNAKNTVYLQMNSLKPEDTAVYYCNASGGPYRYYYWGQGTQVTVSS low polyreactivity

Requested read-out: polyreactivity (PSR sort gate). Entry: QVQLVESGGGLVQAGGSLRLSCAASGRIFYYYAMGWYRQAPGKERELVAAISSRGASTYYADSVKGRFTISRDNAKNTVYLQMNSLKPEDTAVYYCAASTPFRSTRYDYWGQGTQVTVSS high polyreactivity

May I ask what polyreactivity (PSR sort gate) has been recorded for QVQLVESGGGLVQAGGSLRLSCAASGRIFQYYAMGWYRQAPGKERELVAAISSRGGSTTYADSVKGRFTISRDNAKNTVYLQMNSLKPEDTAVYYCARDWYYYPQYRQRYYYWGQGTQVTVSS ? high polyreactivity

====

Experiment: yeast display, Sf9 membrane polyspecificity reagent, FACS + sequencing; frameworks hold sequencing errors
readoutKind: polyreactivity (PSR sort gate)

Please review the entries below; each comes with its answer.
Using the record for QVQLVESGGGLDQAGGSLRLRCAASGIIFDYNGMGWYRQAPGKERELVAVISFSGSGTYYADSVKGRFTISRDNAKNTVYLHMNSLKPEDTAVYYCAADTGPYFEYEYWGQGTQVTVSS , report its polyreactivity (PSR sort gate). low polyreactivity

What value of measured polyreactivity (PSR sort gate) is listed for QVQLVESGGGLVQAGGSLRLSCAASGSIFRRYAKGWYRQAPGKERELVAAITNRGGTTYYADSVKGRFTISRDNAKNSVYLQMNSLKPEDTAVYYCNAYYRTKGGFRFGYWGQVTQVTVSS ? high polyreactivity

// lookup polyreactivity (PSR sort gate) for QVQLVESGGGLVKAGGSLRLSCAASGSIFNRYAMGWYRPAPGKEREFGARISKRGGGTYYADSVKGRFTISRDNAKNPVYLQMNRLKPEDTAVYYCNAGVPSAMDYCGQGTQVTVSS high polyreactivity

For QVQLVESGGGLVQAGGSLRLSCAASVRIFPIYAMGWYRQAPGKERELVAAIDSGGSTTYADSVKGRFTISRDNAKNTVYLQMNSLKPEDTAVYYCSAKGAYPYWYPVAYRYDYWGQGTQVTVSS , what is its reported polyreactivity (PSR sort gate)? low polyreactivity

Recorded polyreactivity (PSR sort gate) for QVQLVESGGGLVQAGGSLRLSCAASGSTFVDNAMGWYRQAPGKERELVADISSGGSTYYADSVKGRFTISRDNAKNTVYLQMNSLKPEDTAVYYCAARRITSTDEYYWGQGTQVTVSS , please? high polyreactivity

Need polyreactivity (PSR sort gate) of QVQLVESGGGLVQAGGRLRLSCDASGRIFTYNAMGWYRQAPGKERELVGAITFSGGGTYYADSVKGRFTISRDNAKNTVYLVMTSLKPEDTAVYYCNQVSFGYSTYGYWGQGTQVTVSS , thanks. low polyreactivity

Any idea what polyreactivity (PSR sort gate) was measured for QVQLVESGGGLVQAGGSLRLSCAASGFIFHYYAMGWYRQAPGKERELVAAISKTGGSTYYADSVKGRFTISRDNAKNTVYLQMNSLKPEDTAVYYCAVARSAYYRGNHWGQGTQVTVSS ? high polyreactivity

Query: polyreactivity (PSR sort gate); subject: QVQLVESGGGLVQAGGSLRLSCAASGLIFIGYAKGWSRQAPGKERELVASIRGVGSTNYADSVKGRFTISRDNAKNTVYLQMHSLKPEDTAVYYCATSVDRALYTQTRGDYDYWGQGTQVTVSS low polyreactivity

Continuing:
// lookup polyreactivity (PSR sort gate) for QVQLVESGGGLVQAGGSLRLSCAASGRILGFYAMGWYRQAPGKERELVDSINWSGTRTYYADSVKARFTISRDNAKNTVYLQLNSLKPEDTAVYYCAAERYPYGVTYSKLDYWGQGTQVTVSS high polyreactivity

# query: polyreactivity (PSR sort gate) of entry KVQLVESGGGLVQAGGSLRLSCAASGRIFYSNVMGWYRQATGKERELVAAISGRTGGTYYADSVKGRFTISRDNAKNTVYLQMNSLKPEDTAVYYCAARFIYYYGSGPDDYWGQGTQVTVSS low polyreactivity

What measured polyreactivity (PSR sort gate) goes with QVQLVESGGGLVQAGGSLRLSCAASGRTFRPYAMGWYRPAPGKERELVAAISYRGGITNYADSVKGRFTISRDNAKNTVYLKMNSLKPEDTAVYYCNRYAIWVSRYSDLDYWGQGTEVTVSS ? low polyreactivity
